The measured values listed here are drawn from paper PMC6445123.

Molecular target: recombinant active Casp6 (Casp6-WT) (Homo sapiens, UniProt P55212, INS179NQTEKLDTNITEVD)
Construct: generating mainly large subunit with a linker (LS-L), small subunit (SS), and a minor amount of large subunit (LS); His (C); made in house; host or cells: E. coli BL21(DE3)pLysS
Sequence (P55212 24-193 limits assumed, stated change not applied): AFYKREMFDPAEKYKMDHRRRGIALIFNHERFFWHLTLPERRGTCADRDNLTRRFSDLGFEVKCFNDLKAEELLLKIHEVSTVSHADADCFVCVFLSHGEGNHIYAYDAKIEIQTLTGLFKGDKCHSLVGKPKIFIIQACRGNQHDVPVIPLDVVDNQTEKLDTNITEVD
Sequence (P55212 194-293 limits assumed, stated change not applied): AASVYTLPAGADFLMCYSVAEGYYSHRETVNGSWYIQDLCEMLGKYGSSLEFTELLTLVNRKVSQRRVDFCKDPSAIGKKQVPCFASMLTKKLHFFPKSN
Assay: Fluorescence-based Ac-VEID-AFC cleavage assay (Casp6 activity, IC50 determination)
Assay type: biochemical
Details: fluorescence assay, 20 nM Casp6 active sites, 10 µM Ac-VEID-AFC; read-out: IC50
property: IC50 (µM)

Below are worked cases with known answers.
molecule	property	value-measured
COC(=O)c1cc(CNC(=O)C2(c3ccc(Cl)cc3)CCC2)cc(NC(=O)c2ccco2)c1 [Compound C13F]	IC50	27
O=C(Cn1cc(/C=C2/C(=O)NC(=O)N(Cc3ccco3)C2=O)c2ccccc21)NCC1CCCO1 (stereo not drawn)	IC50	30.2

I: COC(=O)c1cc(CNC(=O)c2cc(C)cc(C)c2)cc(NC(=O)c2ccco2)c1 [Compound C13G]
II: COC(=O)c1cc(CNC(=O)C2Cc3ccccc3O2)cc(NC(=O)c2ccco2)c1 (stereo not drawn)
III: Cc1nn(-c2ccccc2)c2c1C(c1cccc(OCc3ccccc3)c1)C(C#N)=C(N)O2 (stereo not drawn)
IV: Nc1nc2c(s1)C(c1ccc(OCc3cccc(F)c3)cc1)CC(=O)N2 (stereo not drawn)
Q) Task field, ranking: reported IC50, descending order. Lab note: record answer as labels in requested order.
A) IV, III, I, II
